Origin of measurements: patent US20210388105A1

Biological target: T1, KW27-14 (human CD39 mutant, C-terminal EGFP) (human, UniProt P49961 1-510)
T1 construct: expressed on HEK293F cells; not shown: C-terminal EGFP fusion (vector pCMV3-GFPSpark)
T1 chain: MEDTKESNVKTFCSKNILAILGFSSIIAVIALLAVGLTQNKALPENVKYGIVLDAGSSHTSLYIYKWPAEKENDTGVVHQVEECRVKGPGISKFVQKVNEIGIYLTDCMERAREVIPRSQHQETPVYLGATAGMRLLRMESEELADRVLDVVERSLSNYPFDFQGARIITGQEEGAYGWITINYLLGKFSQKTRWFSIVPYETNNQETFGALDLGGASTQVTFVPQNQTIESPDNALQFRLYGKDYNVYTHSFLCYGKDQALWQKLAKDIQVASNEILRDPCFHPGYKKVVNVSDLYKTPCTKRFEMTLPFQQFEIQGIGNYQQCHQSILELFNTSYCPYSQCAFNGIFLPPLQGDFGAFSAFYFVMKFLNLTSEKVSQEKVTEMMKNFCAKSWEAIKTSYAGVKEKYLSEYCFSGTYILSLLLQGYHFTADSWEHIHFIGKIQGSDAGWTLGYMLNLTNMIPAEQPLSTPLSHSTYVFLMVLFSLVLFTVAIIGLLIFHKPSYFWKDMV
Assay: FACS, mutant-EGFP on HEK293F cells
QUANTITY_NAME: binding result

c34 (antibody, V domains shown, its making is not described; also called chimeric antibody c34) VH: EIQVQQSGPELVKPGASVKVSCKASGYSFTDYNMYWVKQSHGKSLEWIGFIDPYNGYTSYNQKFKGKATLTIDKSSSTAFMHLNSLTSEDSAVYYCAIYGYDDAYYFDYWGQGTTLTVSS VL: QIVLTQSPAIMSASPGEKVTITCSATSSVSYMHWFRQKPGTSPKLWIYSTSNLASGVPARFSGSGSGTSYSLTISRMAAEDAATYYCQQRITYPFTFGSGTKLEIT
binds
